# assay_notes: Cytotoxicity against mouse RAW264.7 cells assessed as growth inhibition at 2 uM after 72 hrs by MTT assay relative to control
# Assay type: cell-based
# conditions_used: read-out: GI
assay_endpoint: inhibition at 72 h, 2 µM

[ask] Kindly indicate its recorded inhibition at 72 h, 2 µM. Item: `COC(=O)[C@]12CC=C(C)[C@@H](C)[C@@H]1[C@H]1CC[C@@H]3[C@@]4(C)CC[C@H](O)C(C)(C)[C@@H]4CC[C@@]3(C)[C@]1(C(=O)O)CC2`
[reply] < 5%

---

# Test system: NCI-N87
# assay_notes: Cytotoxicity against human NCI-N87 cells after 72 hrs by MTT assay
# Format: functional, cell-based
# conditions_used: NCI-N87, 72 h
pIC50: −log10 of the molar value.
Answer each item with its documented pIC50.

[ask] Kindly indicate its recorded pIC50. Item: COc1cccc2c1C(=O)c1c(O)c3c(c(O)c1C2=O)C[C@@](O)(C(=O)CO)C[C@@H]3O[C@H]1C[C@H](N)[C@H](O)[C@H](C)O1 [DOXORUBICIN]
[reply] 5.80

[ask] Kindly indicate its recorded pIC50. Item: `CC1(C)CC[C@@]23CC[C@]4(C)[C@@](OC2=O)([C@@H]3C1)[C@H]1O[C@H]1[C@@H]1[C@@]2(C)C[C@@H](O)[C@H](O)[C@@](C)(CO)[C@@H]2CC[C@]14C`
[reply] < 5.00

[ask] Kindly indicate its recorded pIC50. Item: `C=C1CC[C@]2(C(=O)O)CC[C@]3(C)C(=C[C@@H](OC)[C@@H]4[C@@]5(C)C[C@@H](O)[C@H](O)[C@@](C)(CO)[C@@H]5CC[C@]43C)[C@@H]2[C@H]1C`
[reply] < 5.00

[ask] Kindly indicate its recorded pIC50. Item: CC1(C)CC[C@]2(C(=O)O)CC[C@]3(C)C(=CC[C@@H]4[C@@]5(C)C[C@@H](O)[C@H](O)C(C)(C)[C@@H]5CC[C@]43C)[C@@H]2C1 [MASLINIC ACID]
[reply] < 5.00

[ask] Kindly indicate its recorded pIC50. Item: CC1(C)CC[C@]2(C(=O)O)CC[C@]3(C)C(=CC[C@@H]4[C@@]5(C)CC[C@H](O)C(C)(C)[C@@H]5CC[C@]43C)[C@@H]2C1 [OLEANOLIC_ACID]
[reply] < 5.00

---

# Test system: NCI-N87
# assay_notes: Cytotoxicity against human NCI-N87 cells after 72 hrs by MTT assay
# Format: functional, cell-based
# conditions_used: NCI-N87, 72 h
assay_endpoint: IC50 (µM)
Quick note: give the figure in µM, leave out the unit.

[ask] Kindly indicate its recorded IC50. Item: `CC1=CC[C@]2(C(=O)O)CC[C@]3(C)[C@H](CC[C@@H]4[C@@]5(C)CC[C@H](O)C(C)(C)[C@@H]5CC[C@]43C)[C@H]2[C@@H]1C`
[reply] 2.4

[ask] Kindly indicate its recorded IC50. Item: C=C1[C@@H](O)[C@H](O)C[C@]2(C)[C@H]3CC=C4[C@@H]5[C@@H](C)[C@H](C)CC[C@]5(C(=O)O)CC[C@@]4(C)[C@]3(C)CC[C@@H]12 [ILEKUDINOL B]
[reply] 9.1

---

# Tested on: NCI-N87
# assay_notes: Cytotoxicity against human NCI-N87 cells after 72 hrs by MTT assay
# Type: functional, cell-based
# conditions_used: NCI-N87, 72 h
Answer each item with its documented IC50.

[ask] Kindly indicate its recorded IC50. Item: `COC(=O)[C@@]12CC[C@]3(C(=O)O)[C@H](CC[C@@H]4[C@@]5(C)CC[C@H](O)C(C)(C)[C@@H]5CC[C@]43C)[C@@H]1[C@@H](C)C(C)=C[C@H]2O`
[reply] > 10 µM

[ask] Kindly indicate its recorded IC50. Item: `C=C1CC[C@]2(C(=O)O)CC[C@]3(C)C(=CC[C@@H]4[C@@]5(C)C[C@@H](O)[C@H](O)C(C)(C)[C@@H]5CC[C@]43C)[C@@H]2[C@H]1C`
[reply] > 10 µM

[ask] Kindly indicate its recorded IC50. Item: `CC1=CC[C@]2(C(=O)O)CC[C@]3(C=O)[C@H](CC[C@@H]4[C@@]5(C)CC[C@H](O)C(C)(C)[C@@H]5CC[C@]43C)[C@H]2[C@@H]1C`
[reply] > 10 µM

---

# Tested on: NCI-N87
# assay_notes: Cytotoxicity against human NCI-N87 cells after 72 hrs by MTT assay
# Assay type: functional, cell-based
# conditions_used: NCI-N87, 72 h
pIC50: −log10 of the molar value.
Answer each item with its documented pIC50.

[ask] Kindly indicate its recorded pIC50. Item: `C=C1CC[C@]2(C(=O)O)CC[C@]3(C)C(=C[C@@H](O)[C@@H]4[C@@]5(C)C[C@@H](O)[C@H](O)[C@@](C)(CO)[C@@H]5CC[C@]43C)[C@@H]2[C@H]1C`
[reply] < 5.00

[ask] Kindly indicate its recorded pIC50. Item: C[C@H]1[C@H](C)CC[C@]2(C(=O)O)CC[C@]3(C)C(=CC[C@@H]4[C@@]5(C)C[C@@H](O)[C@H](O)[C@@](C)(CO)[C@@H]5CC[C@]43C)[C@H]12 [ASIATIC ACID]
[reply] < 5.00

[ask] Kindly indicate its recorded pIC50. Item: `CC1(C)CC[C@]2(C(=O)O)CC[C@]3(C)C(=C[C@@H](O)[C@@H]4[C@@]5(C)C[C@@H](O)[C@H](O)[C@@](C)(CO)[C@@H]5CC[C@]43C)[C@@H]2C1`
[reply] < 5.00

---

# Tested on: NCI-N87
# assay_notes: Cytotoxicity against human NCI-N87 cells after 72 hrs by MTT assay
# Type: functional, cell-based
# conditions_used: NCI-N87, 72 h
assay_endpoint: IC50

[ask] Kindly indicate its recorded IC50. Item: `C[C@H]1[C@H](C)CC[C@]2(C(=O)O)CC[C@]3(C)C(=C[C@@H](O)[C@@H]4[C@@]5(C)C[C@@H](O)[C@H](O)[C@@](C)(CO)[C@@H]5CC[C@]43C)[C@H]12`
[reply] > 10 µM

[ask] Kindly indicate its recorded IC50. Item: `CO[C@@H]1C=C2[C@@H]3CC(C)(C)CC[C@]3(C(=O)O)CC[C@@]2(C)[C@]2(C)CC[C@@H]3[C@](C)(C[C@@H](O)[C@H](O)[C@@]3(C)CO)[C@@H]12`
[reply] > 10 µM

[ask] Kindly indicate its recorded IC50. Item: `C=C1CC[C@]2(C(=O)O)CC[C@]3(C)C(=CC[C@@H]4[C@@]5(C)C[C@@H](O)[C@H](O)[C@@](C)(CO)[C@@H]5CC[C@]43C)[C@@H]2[C@H]1C`
[reply] > 10 µM

Source: ChEMBL document CHEMBL4002555
